Catalogue of Pre-emergence effectiveness LOLMU values
Test system: Lolium multiflorum
test: Pre-emergence herbicidal effect
Assay type: in vivo
experimental.context: 80 g/ha, visual score after 3 weeks
observed.property: Pre-emergence effectiveness LOLMU (%)

compound="CCc1cc(C#CC2CC2)cc(C)c1C1=C(O)C2(CCC(COC)C2)NC1=O (centres unmarked) [Example I-12]" numeric_readout=100
compound="CCc1cc(C#CC2CC2)cc(C)c1C1=C(OC(=O)C(C)C)C2(CCC(COC)C2)NC1=O (centres unmarked) [Example Ia-11]" numeric_readout=100
compound="CCc1cc(C#CC2CC2)cc(C)c1C1=C(OC(=O)C(C)C)C2(CCC(COC)C2)NC1=O (mixture of isomers) [Example Ia-10]" numeric_readout=80
compound=CCOC(=O)OC1=C(c2c(C)cc(C#CC3CC3)cc2CC)C(=O)N[C@]12CC[C@H](COC)C2 numeric_readout=100
compound="CC#Cc1cc(CC)c(C2=C(OC(=O)C(C)C)C3(CCC(CCOC)CC3)NC2=O)c(CC)c1 (centres unmarked)" numeric_readout=100
compound="CC#Cc1cc(C)c(C2=C(O)C3(CCC(COC)CC3)NC2=O)c(CC)c1 (centres unmarked)" numeric_readout=100
compound="CCc1cc(C#CC2CC2)cc(C)c1C1=C(O)C2(CCC(COC)C2)NC1=O (centres unmarked) [Example I-11]" numeric_readout=100
compound="COCC1CCC2(CC1)NC(=O)C(c1c(C)cc(C#CC3CC3)cc1C)=C2O (centres unmarked)" numeric_readout=90
